Target: cynomolgus beta klotho / human FGFR1c receptor complex on cells (cynomolgus monkey (Macaca …))
Sequence (chain, as listed by the source limits assumed, chain 1 of 2): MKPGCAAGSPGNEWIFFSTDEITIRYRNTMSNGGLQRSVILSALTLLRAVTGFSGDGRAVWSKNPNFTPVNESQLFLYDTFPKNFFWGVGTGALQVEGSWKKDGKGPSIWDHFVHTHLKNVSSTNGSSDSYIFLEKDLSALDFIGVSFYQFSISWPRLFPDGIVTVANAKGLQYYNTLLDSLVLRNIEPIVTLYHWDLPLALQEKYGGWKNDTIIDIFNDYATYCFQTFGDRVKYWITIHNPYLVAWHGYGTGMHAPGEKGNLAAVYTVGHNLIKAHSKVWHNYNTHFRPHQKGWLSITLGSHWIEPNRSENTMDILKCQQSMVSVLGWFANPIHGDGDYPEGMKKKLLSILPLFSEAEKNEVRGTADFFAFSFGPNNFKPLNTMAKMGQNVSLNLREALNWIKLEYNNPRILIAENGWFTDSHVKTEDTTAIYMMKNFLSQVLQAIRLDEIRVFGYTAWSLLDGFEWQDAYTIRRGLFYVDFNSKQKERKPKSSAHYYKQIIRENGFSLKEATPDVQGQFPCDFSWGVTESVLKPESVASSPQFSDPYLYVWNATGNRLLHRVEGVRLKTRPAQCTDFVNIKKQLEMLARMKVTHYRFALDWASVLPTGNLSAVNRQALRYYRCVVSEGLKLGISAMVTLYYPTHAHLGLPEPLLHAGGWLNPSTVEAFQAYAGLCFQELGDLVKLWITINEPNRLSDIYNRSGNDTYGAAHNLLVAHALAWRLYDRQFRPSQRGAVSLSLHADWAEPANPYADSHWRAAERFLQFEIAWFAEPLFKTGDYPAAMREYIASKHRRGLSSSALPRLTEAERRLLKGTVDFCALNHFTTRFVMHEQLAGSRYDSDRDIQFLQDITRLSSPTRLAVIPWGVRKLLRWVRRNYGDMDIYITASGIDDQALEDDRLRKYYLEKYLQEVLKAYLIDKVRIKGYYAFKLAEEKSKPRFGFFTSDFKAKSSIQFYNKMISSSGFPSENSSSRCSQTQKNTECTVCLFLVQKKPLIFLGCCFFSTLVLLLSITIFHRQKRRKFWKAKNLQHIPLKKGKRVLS
Sequence (chain, as listed by the source limits assumed, chain 2 of 2): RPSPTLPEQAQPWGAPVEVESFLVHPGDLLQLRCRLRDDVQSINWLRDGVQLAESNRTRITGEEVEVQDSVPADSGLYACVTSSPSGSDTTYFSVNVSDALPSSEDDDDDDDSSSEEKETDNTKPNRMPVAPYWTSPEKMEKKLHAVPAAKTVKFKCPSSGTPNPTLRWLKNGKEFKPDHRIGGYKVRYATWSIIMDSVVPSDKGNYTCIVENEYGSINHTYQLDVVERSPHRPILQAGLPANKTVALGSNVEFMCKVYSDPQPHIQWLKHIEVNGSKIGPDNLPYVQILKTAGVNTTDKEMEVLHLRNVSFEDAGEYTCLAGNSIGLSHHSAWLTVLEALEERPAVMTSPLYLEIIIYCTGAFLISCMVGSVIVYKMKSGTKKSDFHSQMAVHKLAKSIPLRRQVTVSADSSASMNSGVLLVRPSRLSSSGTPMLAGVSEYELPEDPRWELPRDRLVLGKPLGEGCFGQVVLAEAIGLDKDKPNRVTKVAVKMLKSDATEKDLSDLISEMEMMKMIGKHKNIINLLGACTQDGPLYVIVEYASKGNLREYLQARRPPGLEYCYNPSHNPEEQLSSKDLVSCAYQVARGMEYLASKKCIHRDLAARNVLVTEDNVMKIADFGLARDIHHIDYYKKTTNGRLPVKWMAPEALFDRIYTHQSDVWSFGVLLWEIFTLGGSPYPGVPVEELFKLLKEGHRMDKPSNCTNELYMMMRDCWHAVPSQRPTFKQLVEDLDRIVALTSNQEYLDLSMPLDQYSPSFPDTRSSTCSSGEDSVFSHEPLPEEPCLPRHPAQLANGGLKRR
Test: cell-based or functional assay
We begin with a simple list: items and their reported HEK293 cynoKLB/R1c reporter assay EC50, Experiment - B.
reported property: HEK293 cynoKLB/R1c reporter assay EC50, Experiment - B (pM)

binder: antibody 2L12 (antibody, V domains shown, Murine monoclonal antibody) VH: QVQLQQSGPELVKPGALVKISCKASGYTFTRYDINWVKKRPGQGLEWIGWIYPGDDSTKYNEKFKGKATLTADKSSSTAYMQLSSLTSENSAVYFCARSDYYGSRSFVYWGQGTLVTVSA VL: DIVLTQSPASLPVSLGQRATISCRASKSVSTSGYSYLHWYQQKPGQPPKLLIYLASNLESGVPARFSGSGSGTDFTLNIHPVEEEDAATYYCQHSGELPYTFGGGTKLEIK
measurement unit: pM
comparison sign: =
obs value: 410
--
binder: antibody 4P5 (antibody, V domains shown, Murine monoclonal antibody) VH: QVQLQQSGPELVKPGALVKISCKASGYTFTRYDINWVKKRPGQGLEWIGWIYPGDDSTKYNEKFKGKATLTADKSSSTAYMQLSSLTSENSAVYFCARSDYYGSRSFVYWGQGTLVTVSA VL: DILLTQSPASLAVSLGQRATISCRASKSVSTSGYSYMHWYQQKPGQPPKLLIYLASNLESGVPARFSGRGSGTDFTLNIHPVEEEDAATYYCHHSGELPYTFGGGTKLEIK
measurement unit: pM
comparison sign: =
obs value: 465
--
binder: antibody 3N20 (antibody, V domains shown, Murine monoclonal antibody) VH: QVQLQESGAELARPGASVKLSCKVSGYIFTNYGISWVKQRTGQGLEWIGEIYPRSGNTYYNEKFKGKATLTADMSSSTAYMDLRSLTSEDSAVYFCARHWDGVLDYFDYWGQGTSLTVSS VL: DIVMTQSPSSLSVSAGEKVTMSCKSSQSLLNSGNQKNYLAWYQQKPGQPPKLLIYGASTRESGVPDRFTGSGSGTDFTLTISSVQAEDLAVYYCLNDHSYPFTFGAGTKLELK
measurement unit: pM
comparison sign: >
obs value: 10000
